The values you see were collected from ChEMBL document CHEMBL6177944.

Method notes: Selectivity index, ratio of IC50 for cytotoxicity against human MCF7 cells to IC50 for cytotoxicity against human MDA-MB-231 cells
Format: cell-based
Consider the following compounds and their measured Ratio IC50 readings.

| Compound | Ratio IC50 |
| --- | --- |
| CC(C)=C[C@H]1C[C@H](C)[C@]2(CC[C@]3(C)C[C@H]4[C@H]5[C@@H](CC[C@H]32)[C@H](O)O[C@H]5C[C@@]4(C)O)O1 | ~ 1.1 |
| CC(C)=C[C@H]1C[C@H](C)[C@]2(CC[C@]3(C)C[C@H]4[C@H]5/C(=C\C[C@H]32)C(O)O[C@H]5C[C@@]4(C)O)O1 (stereo not given in full) | ~ 0.25 |
| CC(C)=C[C@H]1C[C@H](C)[C@]2(CC[C@]3(C)C[C@H]4[C@@H](/C(CO)=C\C[C@H]32)[C@@H](O)C[C@@]4(C)O)O1 | ~ 1 |
| CC(C)=C[C@H]1C[C@H](C)[C@]2(CC[C@]3(C)C[C@H]4[C@H]5/C(=C\C[C@H]32)C(=O)O[C@H]5C[C@@]4(C)O)O1 | ~ 0.74 |

Turning to the following compound.
q: Bench note: what Ratio IC50 did CC(C)=C[C@H]1C[C@H](C)[C@]2(CC[C@]3(C)C[C@H]4[C@H]5/C(=C\C[C@H]32)CO[C@@]5(O)C[C@@]4(C)O)O1 show?
a: ~ 0.84
